In this section, each of the molecules is paired with its reported pIC50.
Target: recombinant human Nav1.7 (Homo sapiens (Human), UniProt Q15858)
Sequence (Q15858 whole entry): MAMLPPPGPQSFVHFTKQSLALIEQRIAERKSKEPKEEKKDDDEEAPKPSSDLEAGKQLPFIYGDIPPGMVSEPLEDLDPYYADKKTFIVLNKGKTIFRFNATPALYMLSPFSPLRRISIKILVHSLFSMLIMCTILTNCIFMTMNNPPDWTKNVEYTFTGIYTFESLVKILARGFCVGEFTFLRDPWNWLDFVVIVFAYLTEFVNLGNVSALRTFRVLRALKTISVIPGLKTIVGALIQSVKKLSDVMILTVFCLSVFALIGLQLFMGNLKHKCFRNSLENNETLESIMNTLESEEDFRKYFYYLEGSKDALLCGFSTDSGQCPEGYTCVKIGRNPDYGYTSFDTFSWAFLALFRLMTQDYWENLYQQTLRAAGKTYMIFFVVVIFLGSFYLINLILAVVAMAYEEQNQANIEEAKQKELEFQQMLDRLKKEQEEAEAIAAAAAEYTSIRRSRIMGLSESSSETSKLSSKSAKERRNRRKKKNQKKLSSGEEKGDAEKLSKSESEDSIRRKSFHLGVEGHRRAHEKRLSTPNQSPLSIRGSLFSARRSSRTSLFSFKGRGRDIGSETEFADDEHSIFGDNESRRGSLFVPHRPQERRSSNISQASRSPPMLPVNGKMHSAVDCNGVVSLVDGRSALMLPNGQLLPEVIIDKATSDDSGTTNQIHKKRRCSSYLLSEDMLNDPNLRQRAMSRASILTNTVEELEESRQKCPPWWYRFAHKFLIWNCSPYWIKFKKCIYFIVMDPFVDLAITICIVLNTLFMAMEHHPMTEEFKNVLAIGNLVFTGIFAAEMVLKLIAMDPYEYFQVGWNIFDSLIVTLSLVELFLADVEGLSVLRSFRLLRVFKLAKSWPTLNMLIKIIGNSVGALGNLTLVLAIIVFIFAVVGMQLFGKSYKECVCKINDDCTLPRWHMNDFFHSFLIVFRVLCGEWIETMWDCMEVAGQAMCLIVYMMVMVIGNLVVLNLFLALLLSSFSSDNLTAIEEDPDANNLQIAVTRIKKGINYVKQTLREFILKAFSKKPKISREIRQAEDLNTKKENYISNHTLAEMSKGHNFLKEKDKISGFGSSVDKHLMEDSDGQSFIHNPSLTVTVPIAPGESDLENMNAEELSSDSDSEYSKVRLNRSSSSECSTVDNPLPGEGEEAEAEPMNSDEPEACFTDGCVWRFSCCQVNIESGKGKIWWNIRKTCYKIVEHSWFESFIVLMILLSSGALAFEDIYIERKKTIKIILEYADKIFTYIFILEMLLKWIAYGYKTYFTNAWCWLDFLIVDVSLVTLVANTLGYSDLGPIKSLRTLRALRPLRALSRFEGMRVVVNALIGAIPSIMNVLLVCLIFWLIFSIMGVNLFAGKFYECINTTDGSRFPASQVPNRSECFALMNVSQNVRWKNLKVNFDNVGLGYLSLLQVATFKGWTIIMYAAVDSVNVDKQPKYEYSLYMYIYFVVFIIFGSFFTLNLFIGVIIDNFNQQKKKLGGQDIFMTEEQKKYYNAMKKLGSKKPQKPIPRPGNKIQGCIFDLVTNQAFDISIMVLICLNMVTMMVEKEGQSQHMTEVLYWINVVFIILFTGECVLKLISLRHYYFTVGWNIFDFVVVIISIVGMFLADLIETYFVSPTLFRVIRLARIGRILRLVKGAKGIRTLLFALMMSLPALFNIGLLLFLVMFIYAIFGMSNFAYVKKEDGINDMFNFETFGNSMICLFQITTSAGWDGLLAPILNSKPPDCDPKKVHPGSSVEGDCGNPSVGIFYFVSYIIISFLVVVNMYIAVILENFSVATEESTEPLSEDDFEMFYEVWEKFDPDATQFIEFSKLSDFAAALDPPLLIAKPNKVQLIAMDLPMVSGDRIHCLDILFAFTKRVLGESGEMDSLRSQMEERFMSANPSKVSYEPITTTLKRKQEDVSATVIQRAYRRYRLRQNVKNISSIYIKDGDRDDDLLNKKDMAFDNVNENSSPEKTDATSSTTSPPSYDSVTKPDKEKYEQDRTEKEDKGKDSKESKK
Assay: FRET-based membrane potential assay, recombinant human sodium channel Nav1.7
Type: cell-based
Settings: HEK293 cells stably expressing recombinant human Nav1.7; veratridine + scorpion venom depolarization; read-out: FRET-Membrane Potential Nav1.7 IC50
Reminder that pIC50 is minus the log10 of a molar concentration.

# example entries with known answers
>>> number("O=C(NC1COCC1O)c1ccc2cc(Oc3ccc(C(F)(F)F)cn3)ccc2n1 (centres unmarked) [Example 371]")
5.84
>>> number("O=C(NC1COC1)c1ccc2cc(Oc3ccc(C(F)(F)F)nc3)ccc2n1 [Example 536]")
5.94
>>> number("O=C(NC1CC(=O)N(c2ccc(F)cc2)C1)c1ccc2cc(Oc3ccc(C(F)(F)F)cn3)ccc2n1 (centres unmarked) [Example 54]")
6.39

### Prompt # pIC50 lookup, item N[C@H]1CC[C@@H]2CN(C(=O)c3ccc4cc(Oc5ccc(C(F)(F)F)cn5)ccc4n3)C[C@@H]21 [Example 248]
### Response 4.76

### Prompt What pIC50 value was documented for this molecule, NC(=O)[C@H]1CCCN(C(=O)c2ccc3cc(Oc4ccc(C(F)(F)F)cn4)ccc3n2)C1 [Example 325] ?
### Response 5.07

### Prompt Param item = NCCNC(=O)c1ccc2cc(Oc3ccc(C(F)(F)F)cn3)ccc2n1 [Example 338] ; retrieve measured pIC50.
### Response 6.01

### Prompt What pIC50 value was documented for this molecule, N#Cc1ccc(Oc2ccc3nc(C(=O)N4CCCC(C(F)(F)F)C4)ccc3c2)cc1 (centres unmarked) [Example 110] ?
### Response 5.71

----------
Target: recombinant human Nav1.7 (Homo sapiens (Human), UniProt Q15858)
Experiment: FRET-based membrane potential assay, recombinant human sodium channel Nav1.7
Type: cell-based
Settings: HEK293 cells stably expressing recombinant human Nav1.7; veratridine + scorpion venom depolarization; read-out: FRET-Membrane Potential Nav1.7 IC50
The threshold is 2 µM. Values of IC50 beneath it are tagged true (1); values meeting or exceeding it are tagged false (0).

Take a look at these entries with their results.
>>> label_class("O=C(c1ccc2cc(Oc3ccc(C(F)(F)F)cn3)ccc2n1)N1CCC(N2C[C@@H]3C[C@H]2CO3)CC1")
"false (0)"
>>> label_class("O=C(NCC(F)(F)F)c1ccc2cc(Oc3ccc(C(F)(F)F)cn3)ccc2n1")
"false (0)"
>>> label_class("O=C(c1ccc2cc(Oc3ccc(C(F)(F)F)cn3)ccc2n1)N(C1CCOCC1)C1CCOCC1")
"false (0)"
>>> label_class("CN(C)C(=O)N1CCN(C(=O)c2ccc3cc(Oc4ccc(C(F)(F)F)cn4)ccc3n2)CC1")
"false (0)"
>>> label_class("O=C(c1ccc2cc(Oc3ccc(C(F)(F)F)cn3)ccc2n1)N1C[C@H]2C[C@@H]1CN2")
"true (1)"

### Prompt Lab note: confirm whether the reported IC50 for this compound is below 2 µM, equality not counting. compound: O=C(NCCC(=O)N1CCCCC1)c1ccc2cc(Oc3ccc(C(F)F)cn3)ccc2n1
### Response true (1)

### Prompt Regarding COCCNC(=O)CN(C)C(=O)c1ccc2cc(Oc3ccc(C(F)(F)F)cn3)ccc2n1 , kindly confirm whether its IC50 is beneath 2 µM.
### Response false (0)

### Prompt API: query returns whether the compound falls strictly under 2 µM in IC50. Query: CN1CCN(C(=O)c2ccc3cc(Oc4ccc(C(F)(F)F)cn4)ccc3n2)CC1=O
### Response false (0)

### Prompt # strict comparison: is reported IC50 < 2 µM? input = CC(=O)N1CCN(C(=O)c2ccc3cc(Oc4ccc(C(F)(F)F)cn4)ccc3n2)CC1
### Response false (0)

### Prompt Confirm or reject: IC50 of N#Cc1ccc(Oc2ccc3nc(C(=O)NCc4ccc5c(c4)OCO5)ccc3c2)cc1 lies strictly below 2 µM
### Response false (0)

### Prompt Check if IC50 falls below 2 µM for O=C(c1ccc2cc(Oc3ccc(C(F)(F)F)cn3)ccc2n1)N1CC(Oc2ccc(Cl)cc2)C1 .
### Response false (0)

### Prompt A record lists O=C1CC(CNC(=O)c2ccc3cc(Oc4ccc(C(F)(F)F)cn4)ccc3n2)CN1 (centres unmarked) . Is its IC50 below 2 µM?
### Response false (0)

### Prompt I'd appreciate it if you could check whether O=C(NN1CCOCC1)c1ccc2cc(Oc3ccc(C(F)(F)F)cn3)ccc2n1 has IC50 smaller than 2 µM.
### Response true (1)

### Prompt Criterion: IC50 strictly below 2 µM. Is it met by N#CCCCN1CCN(C(=O)c2ccc3cc(Oc4ccc(C(F)(F)F)cn4)ccc3n2)CC1 ?
### Response false (0)

### Prompt Quick check: IC50 of N#Cc1ccc(Oc2ccc3nc(C(=O)NC4CCCOC4)ccc3c2)cc1 (centres unmarked) under 2 µM?
### Response true (1)
